Biological target: T1, human integrin β3(P685-F727) TM peptide incorporating β3(C687S) (human, UniProt P05106 711-753, C687S)
T1 chain (looked up): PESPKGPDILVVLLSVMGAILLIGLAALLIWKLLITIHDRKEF
Assay: ITC
I'd be grateful if you could share measured KXY (association equilibrium constant on the mole fraction scale) for these entries.
Reply with the value as a number alone.

Input: So what's the measured KXY (association equilibrium constant on the mole fraction scale) for this one? ALEERAIPIAVVLVGVLGGLLLLTILVLAMWKVGFFKRNRP (peptide, UniProt P08514 989-1029, looked up) [integrin αIIb(A958-P998) TM peptide W967A/W968V]
Output: 6400

Input: KXY (association equilibrium constant on the mole fraction scale) lookup needed for ALEERAIPIWVVLVGVLGGLLLLTILVLAMWKVGFFKRNRP (peptide, UniProt P08514 989-1029, looked up) [integrin αIIb(A958-P998) TM peptide W968V] , thanks.
Output: 13200

Input: Record request: KXY (association equilibrium constant on the mole fraction scale) value, item ALEERAIPIYVVLVGVLGGLLLLTILVLAMWKVGFFKRNRP (peptide, UniProt P08514 989-1029, looked up) [integrin αIIb(A958-P998) TM peptide W967Y/W968V]
Output: 9800
